biological target: recombinant human H1 histamine receptor (Homo sapiens, UniProt P35367); construct: expressed in transfected cells; host or cells: CHO cells (membranes); experiment: Histamine H1 receptor radioligand binding; settings: relative to Promethazine
Sequence (P35367 whole entry): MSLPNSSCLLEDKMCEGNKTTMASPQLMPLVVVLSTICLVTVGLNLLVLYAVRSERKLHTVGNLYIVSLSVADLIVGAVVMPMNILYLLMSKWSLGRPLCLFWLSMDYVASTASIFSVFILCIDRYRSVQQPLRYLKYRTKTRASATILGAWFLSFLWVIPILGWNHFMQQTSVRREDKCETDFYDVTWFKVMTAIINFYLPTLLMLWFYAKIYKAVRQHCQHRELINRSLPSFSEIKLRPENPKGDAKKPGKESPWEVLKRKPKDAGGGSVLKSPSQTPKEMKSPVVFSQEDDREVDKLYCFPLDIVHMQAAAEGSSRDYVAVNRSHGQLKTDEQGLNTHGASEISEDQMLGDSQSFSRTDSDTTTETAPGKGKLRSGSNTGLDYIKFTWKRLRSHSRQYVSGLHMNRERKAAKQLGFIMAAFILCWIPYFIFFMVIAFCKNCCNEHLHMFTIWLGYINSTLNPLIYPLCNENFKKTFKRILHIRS
experimental.endpoint: Fold change in binding affinity at H1

molecule	target.or.system	Fold change in binding affinity at H1
COCCOCCOCCOCCOCCOCCOCCOCCOCCOCc1ccc2c(c1)Sc1ccccc1N2CC(C)N(C)C (stereo not drawn)	recombinant human H1 histamine receptor (Homo sapiens, UniProt P35367)	162.23
COCCOCCOCCOCCN(C)C(C)CN1c2ccccc2Sc2ccccc21 (stereo not drawn)	recombinant human H1 histamine receptor (Homo sapiens, UniProt P35367)	7.01

(I) COCCOCCOCCOCc1ccc2c(c1)Sc1ccccc1N2CC(C)N(C)C (stereo not drawn)
(II) COCCOCCOCCOCCOCCOCCOCCOCc1ccc2c(c1)Sc1ccccc1N2CC(C)N(C)C (stereo not drawn)
(III) COCCOCCOCCOCCOCCOCCN(C)C(C)CN1c2ccccc2Sc2ccccc21 (stereo not drawn)
rank_up(items): orders items by reported Fold change in binding affinity at H1 in ascending numerical order. In your reply, arrange the labels in the requested order. I, III, II

(1) COCCOCCOCCOCCOCCN(C)C(C)CN1c2ccccc2Sc2ccccc21 (stereo not drawn)
(2) COCCOCCOCCN(C)C(C)CN1c2ccccc2Sc2ccccc21 (stereo not drawn)
# return whichever of 1 and 2 has the smaller Fold change in binding affinity at H1 Please identify the chosen entry by its label. 2
(2: 8.20, 1: 30.68)

(I) COCCOCCOCCOCCOCCOCc1ccc2c(c1)Sc1ccccc1N2CC(C)N(C)C (stereo not drawn)
(II) COCCOCCOCCOCCOCCOCCOCCN(C)C(C)CN1c2ccccc2Sc2ccccc21 (stereo not drawn)
Higher Fold change in binding affinity at H1: I or II ? Please identify the chosen entry by its label. II
(II: 60.79, I: 25.76)
